Below: a set of entries, each annotated with reported Kd.
Target: T1, biotinylated Aβ1-40 peptide (biotinylated (N-biotinylated in Example 7))
T1 construct: captured on streptavidin (SA) chip; also called Biotinylated Aβ peptide 1-40; Aβ1-40 on SA chip
T1 sequence (peptide, as listed by the source): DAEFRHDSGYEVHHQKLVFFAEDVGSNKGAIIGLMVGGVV
Assay: SPR, Fab over Aβ1-40 on SA chip; KD=koff/kon
Write the value in nM as a bare number.

Data request: // lookup Kd for 9TL variant M18 Fab (Fab, V domains shown, Fab; human IgG2 CH1 and kappa CL) VH: QVQLVQSGAEVKKPGASVKVSCKASGYYTEAYYIHWVRQAPGQGLEWMGRIDPATGNTKYAPRLQDRVTMTRDTSTSTVYMELSSLRSEDTAVYYCASLYSLPVYWGQGTTVTVSS VL: DVVMTQSPLSLPVTLGQPASISCKSSQSLLYSDAKTYLNWFQQRPGQSPRRLIYQISRLDPGVPDRFSGSGSGTDFTLKISRVEAEDVGVYYCLQGTHQPVLFGQGTRLEIKR
Data returned: 4.72

Data request: // lookup Kd for 9TL variant M4 Fab (Fab, V domains shown, Fab; human IgG2 CH1 and kappa CL) VH: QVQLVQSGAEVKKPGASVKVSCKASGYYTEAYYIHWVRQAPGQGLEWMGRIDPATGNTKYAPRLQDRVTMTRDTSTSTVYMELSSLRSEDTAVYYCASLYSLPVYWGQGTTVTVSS VL: DVVMTQSPLSLPVTLGQPASISCKSSQSLLYSDAKTYLNWFQQRPGQSPRRLIYQISRLDPGVPDRFSGSGSGTDFTLKISRVEAEDVGVYYCFQGTHYPVLFGQGTRLEIKR
Data returned: 3.13

Data request: // lookup Kd for 9TL variant M41 Fab (Fab, V domains shown, Fab; human IgG2 CH1 and kappa CL) VH: QVQLVQSGAEVKKPGASVKVSCKASGYYTEAYYIHWVRQAPGQGLEWMGRIDPATGNTKYAPRLQDRVTMTRDTSTSTVYMELSSLRSEDTAVYYCASLYSQPVYWGQGTTVTVSS VL: DVVMTQSPLSLPVTLGQPASISCKSSQSLLYSDAKTYLNWFQQRPGQSPRRLIYQISRLDPGVPDRFSGSGSGTDFTLKISRVEAEDVGVYYCLQGTHYPVLFGQGTRLEIKR
Data returned: 31.4

Data request: // lookup Kd for 9TL variant M56 Fab (Fab, V domains shown, Fab; human IgG2 CH1 and kappa CL) VH: QVQLVQSGAEVKKPGASVKVSCKASGYYTEAYYIHWVRQAPGQGLEWMGRIDPATGNTKYAPRLQDRVTMTRDTSTSTVYMELSSLRSEDTAVYYCASLYSLPVVWGQGTTVTVSS VL: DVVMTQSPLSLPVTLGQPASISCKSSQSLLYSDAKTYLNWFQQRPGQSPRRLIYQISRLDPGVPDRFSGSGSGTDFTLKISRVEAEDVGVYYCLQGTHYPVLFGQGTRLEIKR
Data returned: 11
